Protocol details: Solubility assessment (solvent added in 10 volume aliquots)
Format: physicochemical
Details: toluene, organic solvent or mixture, thermodynamic from solid, Toluene, 200 vols; read-out: Solubility assessment observation
Metric: solubility

Record C1=C2COC/C=C/COCc3cc(ccc3OCCN3CCCC3)Nc3nccc(n3)C(=C1)O2 . Reported solubility: < 5000 µg/mL

---

Protocol details: Solubility assessment (solvent added in 10 volume aliquots)
Format: physicochemical
Details: TBME, organic solvent or mixture, thermodynamic from solid, TBME, 20 vols; read-out: Solubility assessment observation
Metric: solubility

solubility measured on C1=C2COC/C=C/COCc3cc(ccc3OCCN3CCCC3)Nc3nccc(n3)C(=C1)O2 = < 50 mg/mL

---

Protocol details: Solubility assessment (solvent added in 10 volume aliquots)
Assay type: physicochemical
Details: ethyl acetate, organic solvent or mixture, thermodynamic from solid, Ethyl acetate, 90 vols; read-out: Solubility assessment observation
Metric: solubility

Briefly, solubility measured for C1=C2COC/C=C/COCc3cc(ccc3OCCN3CCCC3)Nc3nccc(n3)C(=C1)O2 [Batch 4] : < 11.1 mg/mL

---

Protocol details: Solubility assessment (solvent added in 10 volume aliquots)
Format: physicochemical
Details: i-propyl acetate, organic solvent or mixture, thermodynamic from solid, i-propyl acetate, 80 vols; read-out: Solubility assessment observation
Metric: solubility

The compound identified as C1=C2COC/C=C/COCc3cc(ccc3OCCN3CCCC3)Nc3nccc(n3)C(=C1)O2 [Batch 4] registered its solubility at < 12.5 mg/mL

---

Protocol details: Solubility assessment (solvent added in 10 volume aliquots)
Type: physicochemical
Details: ethyl acetate, organic solvent or mixture, thermodynamic from solid, Ethyl acetate, 20 vols; read-out: Solubility assessment observation
Metric: solubility

Query C1=C2COC/C=C/COCc3cc(ccc3OCCN3CCCC3)Nc3nccc(n3)C(=C1)O2 yields solubility of < 50 mg/mL

---

Protocol details: Solubility assessment (solvent added in 10 volume aliquots)
Format: physicochemical
Details: ethanol, organic solvent or mixture, thermodynamic from solid, Ethanol, 100 vols; read-out: Solubility assessment observation
Metric: solubility

For this compound ( C1=C2COC/C=C/COCc3cc(ccc3OCCN3CCCC3)Nc3nccc(n3)C(=C1)O2 ), measured solubility is < 10000 µg/mL

---

Protocol details: Solubility assessment (solvent added in 10 volume aliquots)
Format: physicochemical
Details: TBME, organic solvent or mixture, thermodynamic from solid, TBME, 200 vols; read-out: Solubility assessment observation
Metric: solubility

So for C1=C2COC/C=C/COCc3cc(ccc3OCCN3CCCC3)Nc3nccc(n3)C(=C1)O2 [Batch 4] , the logged solubility turned out to be < 5000 µg/mL

---

Protocol details: Solubility assessment (solvent added in 10 volume aliquots)
Format: physicochemical
Details: TBME, organic solvent or mixture, thermodynamic from solid, TBME, 30 vols; read-out: Solubility assessment observation
Metric: solubility

solubility in this record for C1=C2COC/C=C/COCc3cc(ccc3OCCN3CCCC3)Nc3nccc(n3)C(=C1)O2 : < 33.3 mg/mL

---

Protocol details: Solubility assessment (solvent added in 10 volume aliquots)
Assay type: physicochemical
Details: acetone, organic solvent or mixture, thermodynamic from solid, Acetone, 80 vols; read-out: Solubility assessment observation
Metric: solubility

Just so you know, measured solubility for C1=C2COC/C=C/COCc3cc(ccc3OCCN3CCCC3)Nc3nccc(n3)C(=C1)O2 [Batch 5] came out at < 12.5 mg/mL

---

Protocol details: Solubility assessment (solvent added in 10 volume aliquots)
Format: physicochemical
Details: MEK, organic solvent or mixture, thermodynamic from solid, MEK, 40 vols; read-out: Solubility assessment observation
Metric: solubility

Per the record, C1=C2COC/C=C/COCc3cc(ccc3OCCN3CCCC3)Nc3nccc(n3)C(=C1)O2 [Batch 5] has solubility of < 25 mg/mL

---

Protocol details: Solubility assessment (solvent added in 10 volume aliquots)
Format: physicochemical
Details: ethanol, organic solvent or mixture, thermodynamic from solid, Ethanol, 30 vols; read-out: Solubility assessment observation
Metric: solubility

Memo: C1=C2COC/C=C/COCc3cc(ccc3OCCN3CCCC3)Nc3nccc(n3)C(=C1)O2 , reported solubility: < 33.3 mg/mL

---

Protocol details: Solubility assessment (solvent added in 10 volume aliquots)
Type: physicochemical
Details: ethanol, organic solvent or mixture, thermodynamic from solid, Ethanol, 200 vols; read-out: Solubility assessment observation
Experimental: For each solvent investigated, approximately 8 mg of compound 1 was weighed into an 8 ml screw top glass vial. The solvent was added in 10 volume aliquots and the mixture sonicated and warmed (with a hot-air gun) to encourage dissolution. If dissolution was not achieved after the addition of 100 volumes of solvent, a further 100 volumes was added.
Metric: solubility

Documented solubility of C1=C2COC/C=C/COCc3cc(ccc3OCCN3CCCC3)Nc3nccc(n3)C(=C1)O2 : < 5000 µg/mL

---

Protocol details: Solubility assessment (solvent added in 10 volume aliquots)
Assay type: physicochemical
Details: toluene, organic solvent or mixture, thermodynamic from solid, Toluene, 20 vols; read-out: Solubility assessment observation
Metric: solubility

Entry C1=C2COC/C=C/COCc3cc(ccc3OCCN3CCCC3)Nc3nccc(n3)C(=C1)O2 — recorded solubility = < 50 mg/mL

---

Protocol details: Solubility assessment (solvent added in 10 volume aliquots)
Assay type: physicochemical
Details: acetonitrile, organic solvent or mixture, thermodynamic from solid, Acetonitrile, 20 vols; read-out: Solubility assessment observation
Metric: solubility

Value of measured solubility for the entry C1=C2COC/C=C/COCc3cc(ccc3OCCN3CCCC3)Nc3nccc(n3)C(=C1)O2 : < 50 mg/mL

---

Protocol details: Solubility assessment (solvent added in 10 volume aliquots)
Assay type: physicochemical
Details: toluene, organic solvent or mixture, thermodynamic from solid, Toluene, 40 vols; read-out: Solubility assessment observation
Metric: solubility

Measured solubility, C1=C2COC/C=C/COCc3cc(ccc3OCCN3CCCC3)Nc3nccc(n3)C(=C1)O2 [Batch 4] : < 25 mg/mL

---

Protocol details: Solubility assessment (solvent added in 10 volume aliquots)
Assay type: physicochemical
Details: TBME, organic solvent or mixture, thermodynamic from solid, TBME, 40 vols; read-out: Solubility assessment observation
Protocol: For each solvent investigated, approximately 8 mg of compound 1 was weighed into an 8 ml screw top glass vial. The solvent was added in 10 volume aliquots and the mixture sonicated and warmed (with a hot-air gun) to encourage dissolution. If dissolution was not achieved after the addition of 100 volumes of solvent, a further 100 volumes was added.
Metric: solubility

Reported solubility of C1=C2COC/C=C/COCc3cc(ccc3OCCN3CCCC3)Nc3nccc(n3)C(=C1)O2 [Batch 4] : < 25 mg/mL

---

Protocol details: Solubility assessment (solvent added in 10 volume aliquots)
Format: physicochemical
Details: toluene, organic solvent or mixture, thermodynamic from solid, Toluene, 100 vols; read-out: Solubility assessment observation
Metric: solubility

Briefly, solubility measured for C1=C2COC/C=C/COCc3cc(ccc3OCCN3CCCC3)Nc3nccc(n3)C(=C1)O2 [Batch 4] : < 10000 µg/mL

---

Protocol details: Solubility assessment (solvent added in 10 volume aliquots)
Format: physicochemical
Details: TBME, organic solvent or mixture, thermodynamic from solid, TBME, 70 vols; read-out: Solubility assessment observation
Metric: solubility

For record C1=C2COC/C=C/COCc3cc(ccc3OCCN3CCCC3)Nc3nccc(n3)C(=C1)O2 the listed solubility is < 14.3 mg/mL

---

Protocol details: Solubility assessment (solvent added in 10 volume aliquots)
Format: physicochemical
Details: water, thermodynamic from solid, Water, 10 vols; read-out: Solubility assessment observation
Metric: solubility

Per the record, C1=C2COC/C=C/COCc3cc(ccc3OCCN3CCCC3)Nc3nccc(n3)C(=C1)O2 [Batch 5] has solubility of > 100 mg/mL

---

Protocol details: Solubility assessment (solvent added in 10 volume aliquots)
Format: physicochemical
Details: acetonitrile, organic solvent or mixture, thermodynamic from solid, Acetonitrile, 100 vols; read-out: Solubility assessment observation
Metric: solubility

Sample C1=C2COC/C=C/COCc3cc(ccc3OCCN3CCCC3)Nc3nccc(n3)C(=C1)O2 [Batch 5] ; solubility observed: < 10000 µg/mL

---

Protocol details: Solubility assessment (solvent added in 10 volume aliquots)
Type: physicochemical
Details: acetone, organic solvent or mixture, thermodynamic from solid, Acetone, 40 vols; read-out: Solubility assessment observation
Method: For each solvent investigated, approximately 8 mg of compound 1 was weighed into an 8 ml screw top glass vial. The solvent was added in 10 volume aliquots and the mixture sonicated and warmed (with a hot-air gun) to encourage dissolution. If dissolution was not achieved after the addition of 100 volumes of solvent, a further 100 volumes was added.
Metric: solubility

So for C1=C2COC/C=C/COCc3cc(ccc3OCCN3CCCC3)Nc3nccc(n3)C(=C1)O2 , the logged solubility turned out to be < 25 mg/mL

---

Protocol details: Solubility assessment (solvent added in 10 volume aliquots)
Format: physicochemical
Details: MEK, organic solvent or mixture, thermodynamic from solid, MEK, 80 vols; read-out: Solubility assessment observation
Metric: solubility

Record C1=C2COC/C=C/COCc3cc(ccc3OCCN3CCCC3)Nc3nccc(n3)C(=C1)O2 , field solubility: < 12.5 mg/mL

---

Protocol details: Solubility assessment (solvent added in 10 volume aliquots)
Assay type: physicochemical
Details: i-propyl acetate, organic solvent or mixture, thermodynamic from solid, i-propyl acetate, 200 vols; read-out: Solubility assessment observation
Metric: solubility

Entry C1=C2COC/C=C/COCc3cc(ccc3OCCN3CCCC3)Nc3nccc(n3)C(=C1)O2 [Batch 4] ; solubility = < 5000 µg/mL
